- Measurement target: Tyrosine-protein kinase ITK/TSK (Homo sapiens)
- Sequence (Q08881 whole entry): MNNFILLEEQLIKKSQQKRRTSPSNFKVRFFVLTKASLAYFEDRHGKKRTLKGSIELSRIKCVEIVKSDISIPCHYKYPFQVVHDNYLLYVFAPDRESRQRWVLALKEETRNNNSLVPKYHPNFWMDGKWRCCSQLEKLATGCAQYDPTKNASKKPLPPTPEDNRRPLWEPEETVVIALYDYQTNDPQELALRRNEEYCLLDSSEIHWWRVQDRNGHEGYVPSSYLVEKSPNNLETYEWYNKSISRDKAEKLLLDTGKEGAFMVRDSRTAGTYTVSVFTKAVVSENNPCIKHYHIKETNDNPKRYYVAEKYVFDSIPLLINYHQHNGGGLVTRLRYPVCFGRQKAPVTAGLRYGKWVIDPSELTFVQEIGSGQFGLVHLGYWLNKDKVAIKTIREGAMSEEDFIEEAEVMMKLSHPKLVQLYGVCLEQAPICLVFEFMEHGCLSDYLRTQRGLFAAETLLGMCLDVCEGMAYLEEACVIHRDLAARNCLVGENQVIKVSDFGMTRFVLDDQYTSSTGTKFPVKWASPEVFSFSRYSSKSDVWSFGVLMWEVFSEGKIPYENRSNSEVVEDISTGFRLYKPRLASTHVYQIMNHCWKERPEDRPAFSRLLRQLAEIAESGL
- Assay remarks: ITK Target Modulation PLC-gamma Assay: Compounds were serially diluted into DMSO, and then into media to concentrations 10× that of the final assay concentration. Compounds were then added to the cells with the final assay DMSO concentration being 0.1%. Cells were incubated for 1 hour at 37° C. Following compound incubation, αCD3 Dynabeads were added at 1 bead/cell to each assay well and incubated at 37° C. for 7 minutes. Unstimulated control wells received media only. The plate was then placed on a 96-well magnetic plate for an additional 60 seconds (total assay stimulation time equals 8 minutes). The plate was then dumped and gently patted dry on a paper towel. 50 ul of complete Meso Scale Discovery (MSD) Lysis buffer was then added to each well. Samples were assayed for phospho-PLCγ1 using Meso Scale Discovery technology.
pIC50: −log10 of the molar value.
Measured quantity: pIC50

C=CC(=O)Nc1cccc(-c2cnc3[nH]cc(-c4ccnc(NC)n4)c3c2)c1
> 6.00
C=CC(=O)Nc1cccc(-c2cnc3[nH]cc(-c4ccncn4)c3c2)c1
> 6.00
C=CC(=O)Nc1cccc(-c2cnc3[nH]cc(-c4cccc5[nH]ccc45)c3c2)c1
5.30 to 6.00
C=CC(=O)Nc1cc(OC)cc(-c2cnc3[nH]cc(-c4ccncc4)c3c2)c1
> 6.00
C=CC(=O)Nc1cc(-c2cnc3[nH]cc(-c4ccncc4)c3c2)cc(C(F)(F)F)c1
> 6.00
